Where do these numbers come from? They come from patent US9951064B2.

So I've got a bunch of compounds here, and I need their pKi values.
Biological target: EGFR del746-750 T790M (Homo sapiens, UniProt P00533, DEL746-750/T790M)
Sequence (P00533 with tags, fused parts or gaps DEL746-750/T790M limits assumed): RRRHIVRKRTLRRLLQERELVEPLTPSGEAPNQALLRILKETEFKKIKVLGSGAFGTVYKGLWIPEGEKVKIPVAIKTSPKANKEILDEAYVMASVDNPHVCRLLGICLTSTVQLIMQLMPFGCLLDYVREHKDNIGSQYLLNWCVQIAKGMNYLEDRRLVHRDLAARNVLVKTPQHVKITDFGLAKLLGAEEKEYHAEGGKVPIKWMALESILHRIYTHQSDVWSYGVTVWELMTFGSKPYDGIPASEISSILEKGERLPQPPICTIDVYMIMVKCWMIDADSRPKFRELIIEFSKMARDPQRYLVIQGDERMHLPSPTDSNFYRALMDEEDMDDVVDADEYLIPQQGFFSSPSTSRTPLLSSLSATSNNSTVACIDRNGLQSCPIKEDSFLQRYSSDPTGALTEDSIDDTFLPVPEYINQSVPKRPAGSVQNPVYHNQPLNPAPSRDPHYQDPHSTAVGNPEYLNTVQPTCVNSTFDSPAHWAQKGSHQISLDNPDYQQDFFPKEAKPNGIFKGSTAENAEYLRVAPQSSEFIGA
Experiment: EGFR del746-750 T790M biochemical assay (Caliper mobility shift)
Conditions: 5 μM ATP; apparent Ki (Morrison fit) converted by Cheng-Prusoff, Km of ATP 2.1 μM; read-out: EGFR(T790M/d746-750) Ki
# reply with the number alone; pKi is -log10 of concentration in mol/L

# return recorded pKi for entry CC1COCC(C)N1c1nn(C(C)C)c2cc(Nc3ccnc(-c4cnn(S(=O)(=O)C5CC5)c4)n3)ncc12 (stereo not shown)
6.70

# return recorded pKi for entry CC(O)C1CN(c2nn(C(C)C)c3cc(Nc4ccnc(-c5cnn(S(=O)(=O)C6CC6)c5)n4)ncc23)C1 (stereo not shown)
9.30

# return recorded pKi for entry CC(C)n1nc(N2C[C@@H](O)[C@H](F)C2)c2cnc(Nc3ccnc(N4CC[C@H](O)[C@H](F)C4)n3)cc21 (relative stereo)
8.92

# return recorded pKi for entry CC(C)n1nc(N2CC(F)(CO)C2)c2cnc(Nc3ccnc(N4CC[C@H](O)[C@H](F)C4)n3)cc21 (racemic)
8.48
